B1: tRNA (parent)
chain: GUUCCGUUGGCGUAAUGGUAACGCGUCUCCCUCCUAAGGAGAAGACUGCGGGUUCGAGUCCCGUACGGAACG

- Variants of: B1
- Test Protocol: yeast fitness relative to wild type (ratio to wild type); higher = fitter; tRNA-Arg(CCU), competitive growth, 37 C, YPD
This sample holds only a part of the variants without activity.
# key: entry, value: yeast fitness
// return a plain number; no unit text

Answered examples (5):
# Changes, yeast fitness
records = [
    ("A40C G44A", 0.913),
    ("C22U G44C", 0.812),
    ("U26A G41C C46U", 0.797),
    ("C22U U35A", 0.553),
    ("C29U C33G G52A G58C", 0.596),
]

Value lookup for yeast fitness; key = A37C C60U A70C
0.546

Value lookup for yeast fitness; key = A40U G44C U64C
0.944

Value lookup for yeast fitness; key = C24A C33A
0.587
